Listed here: molecules with reported pKi for Serine/threonine-protein kinase mTOR (Homo sapiens).
// pKi is dimensionless: -log10 of concentration (M)

Find pKi for "CC(C)n1cc(C(=O)c2cncc(N[C@@H]3CCN[C@@H]3c3ccc(F)cc3)n2)c2c(N)ncnc21" on Serine/threonine-protein kinase mTOR (Homo sapiens) and write it down. 5.68

Find pKi for "CC(=O)N1CC[C@@H](Nc2cncc(C(=O)c3cn(C(C)C)c4ncnc(N)c34)n2)[C@H]1c1ccccc1" on Serine/threonine-protein kinase mTOR (Homo sapiens) and write it down. 5.41

Find pKi for "CC(=O)N1CC[C@@H](Nc2cncc(C(=O)c3cn(C(C)C)c4ncnc(N)c34)n2)[C@H]1c1ccc(F)cc1" on Serine/threonine-protein kinase mTOR (Homo sapiens) and write it down. 5.59

----------
Experiment: Inhibition of recombinant GST-tagged P70S6K using 5FAM-KRSRTRTDSYSAGQ-COOH as substrate by fluorescence based assay
quantity_measured: pKi
// pKi is dimensionless: -log10 of concentration (M)

Guide cases for pKi, answers given:
query_smiles | quantitative_result
CC(C)n1cc(C(=O)c2cncc(N[C@@H]3CCO[C@@H]3c3ccc(F)cc3)n2)c2c(N)ncnc21 | 7.21
CC(C)n1cc(C(=O)c2cncc(N[C@@H]3CCC[C@@H]3c3ccc(F)cc3)n2)c2c(N)ncnc21 | 6.64

Supply recorded pKi for "CC(=O)N1CC[C@@H](Nc2cncc(C(=O)c3cn(C(C)C)c4ncnc(N)c34)n2)[C@H]1c1ccccc1" here. 5.44

Supply recorded pKi for "CC(C)n1cc(C(=O)c2cncc(N[C@@H]3CCN(C=O)[C@@H]3c3ccc(F)cc3)n2)c2c(N)ncnc21" here. 6.05

Supply recorded pKi for "CC(C)n1cc(C(=O)c2cncc(N[C@@H]3CNC[C@@H]3c3ccc(F)cc3)n2)c2c(N)ncnc21" here. 7.96

Supply recorded pKi for "CC(=O)N1CC[C@@H](Nc2cncc(C(=O)c3cn(C(C)C)c4ncnc(N)c34)n2)[C@H]1c1ccc(F)cc1" here. 5.00

Supply recorded pKi for "CC(C)n1cc(C(=O)c2cncc(N[C@@H]3CCN[C@@H]3c3ccc(F)cc3)n2)c2c(N)ncnc21" here. 6.92

Supply recorded pKi for "CC(C)n1cc(C(=O)c2cncc(N[C@@H]3COC[C@@H]3c3ccc(F)cc3)n2)c2c(N)ncnc21" here. 6.77

----------
Experiment: Clearance in human liver microsomes
Assay type: ADME, Microsome
Details: read-out: CLH
Response field label: string, one of Y (microsomal CLint strictly below 100 µL/min/mg) or N.

Worked cases, answers included:
query_smiles | assigned_category
CC(C)n1cc(C(=O)c2cncc(N[C@@H]3COC[C@@H]3c3ccc(F)cc3)n2)c2c(N)ncnc21 | N
CC(C)n1cc(C(=O)c2cncc(N[C@@H]3CNC[C@@H]3c3ccc(F)cc3)n2)c2c(N)ncnc21 | Y

Bench note: check whether "CC(=O)N1CC[C@@H](Nc2cncc(C(=O)c3cn(C(C)C)c4ncnc(N)c34)n2)[C@H]1c1ccccc1" shows microsomal CLint below 100 µL/min/mg N

Bench note: check whether "CC(C)n1cc(C(=O)c2cncc(N[C@@H]3CCC[C@@H]3c3ccc(F)cc3)n2)c2c(N)ncnc21" shows microsomal CLint below 100 µL/min/mg N

Bench note: check whether "CC(=O)N1CC[C@@H](Nc2cncc(C(=O)c3cn(C(C)C)c4ncnc(N)c34)n2)[C@H]1c1ccc(F)cc1" shows microsomal CLint below 100 µL/min/mg N

Bench note: check whether "CC(C)n1cc(C(=O)c2cncc(N[C@@H]3CCN[C@@H]3c3ccc(F)cc3)n2)c2c(N)ncnc21" shows microsomal CLint below 100 µL/min/mg Y

Bench note: check whether "CC(C)n1cc(C(=O)c2cncc(N[C@@H]3CCN(C=O)[C@@H]3c3ccc(F)cc3)n2)c2c(N)ncnc21" shows microsomal CLint below 100 µL/min/mg Y

Bench note: check whether "CC(C)n1cc(C(=O)c2cncc(N[C@@H]3CCO[C@@H]3c3ccc(F)cc3)n2)c2c(N)ncnc21" shows microsomal CLint below 100 µL/min/mg N

----------
Test: Passive permeability in canine kidney cells
Assay type: ADME, cell-based, Canis lupus familiaris
Details: dog; read-out: permeability
Response field label: string, one of condition met (Papp strictly below 10 ×10⁻⁶ cm/s) or condition not met.

Worked cases, answers included:
query_smiles | assigned_category
CC(C)n1cc(C(=O)c2cncc(N[C@@H]3CNC[C@@H]3c3ccc(F)cc3)n2)c2c(N)ncnc21 | condition met
CC(C)n1cc(C(=O)c2cncc(N[C@@H]3CCN(C=O)[C@@H]3c3ccc(F)cc3)n2)c2c(N)ncnc21 | condition not met
CC(C)n1cc(C(=O)c2cncc(N[C@@H]3CCO[C@@H]3c3ccc(F)cc3)n2)c2c(N)ncnc21 | condition not met
CC(C)n1cc(C(=O)c2cncc(N[C@@H]3CCN[C@@H]3c3ccc(F)cc3)n2)c2c(N)ncnc21 | condition met
CC(C)n1cc(C(=O)c2cncc(N[C@@H]3COC[C@@H]3c3ccc(F)cc3)n2)c2c(N)ncnc21 | condition not met
CC(C)n1cc(C(=O)c2cncc(N[C@@H]3CCC[C@@H]3c3ccc(F)cc3)n2)c2c(N)ncnc21 | condition met

Bench note: check whether "CC(=O)N1CC[C@@H](Nc2cncc(C(=O)c3cn(C(C)C)c4ncnc(N)c34)n2)[C@H]1c1ccc(F)cc1" shows Papp below 10 ×10⁻⁶ cm/s condition not met

Bench note: check whether "CC(=O)N1CC[C@@H](Nc2cncc(C(=O)c3cn(C(C)C)c4ncnc(N)c34)n2)[C@H]1c1ccccc1" shows Papp below 10 ×10⁻⁶ cm/s condition not met

----------
Biological target: 3-phosphoinositide-dependent protein kinase 1 (Homo sapiens)
Sequence (O15530 whole entry): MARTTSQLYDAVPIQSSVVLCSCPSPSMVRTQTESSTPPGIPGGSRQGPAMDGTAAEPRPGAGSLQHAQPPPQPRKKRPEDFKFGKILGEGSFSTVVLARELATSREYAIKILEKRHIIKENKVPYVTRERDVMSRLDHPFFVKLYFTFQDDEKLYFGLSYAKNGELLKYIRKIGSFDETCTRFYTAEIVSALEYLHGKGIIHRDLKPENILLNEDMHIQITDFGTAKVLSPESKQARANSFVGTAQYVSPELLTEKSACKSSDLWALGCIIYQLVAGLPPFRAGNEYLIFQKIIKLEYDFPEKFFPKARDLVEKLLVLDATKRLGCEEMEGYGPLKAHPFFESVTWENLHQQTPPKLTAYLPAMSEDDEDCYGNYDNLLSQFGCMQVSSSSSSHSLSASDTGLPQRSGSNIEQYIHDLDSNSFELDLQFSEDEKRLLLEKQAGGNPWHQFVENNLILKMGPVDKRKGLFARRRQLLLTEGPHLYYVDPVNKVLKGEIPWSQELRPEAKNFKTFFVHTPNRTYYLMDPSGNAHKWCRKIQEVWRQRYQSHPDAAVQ
Experiment: Inhibition of PDK1-mediated AKT1 phosphorylation at T308 in human SKOV3 cells after 2 hrs by ELISA
Format: cell-based, SK-OV-3
quantity_measured: IC50 (nM)
Numeric answer only, unit nM assumed.

query_smiles | u | IC50
CC(=O)N1CC[C@@H](Nc2cncc(C(=O)c3cn(C(C)C)c4ncnc(N)c34)n2)[C@H]1c1ccccc1 | nM | 200

Find IC50 for "CC(=O)N1CC[C@@H](Nc2cncc(C(=O)c3cn(C(C)C)c4ncnc(N)c34)n2)[C@H]1c1ccc(F)cc1" on 3-phosphoinositide-dependent protein kinase 1 (Homo sapiens) and write it down. 70

Find IC50 for "CC(C)n1cc(C(=O)c2cncc(N[C@@H]3CCN(C=O)[C@@H]3c3ccc(F)cc3)n2)c2c(N)ncnc21" on 3-phosphoinositide-dependent protein kinase 1 (Homo sapiens) and write it down. 70

----------
Molecular target: Serine/threonine-protein kinase MARK1 (Homo sapiens)
Sequence (Q9P0L2 whole entry): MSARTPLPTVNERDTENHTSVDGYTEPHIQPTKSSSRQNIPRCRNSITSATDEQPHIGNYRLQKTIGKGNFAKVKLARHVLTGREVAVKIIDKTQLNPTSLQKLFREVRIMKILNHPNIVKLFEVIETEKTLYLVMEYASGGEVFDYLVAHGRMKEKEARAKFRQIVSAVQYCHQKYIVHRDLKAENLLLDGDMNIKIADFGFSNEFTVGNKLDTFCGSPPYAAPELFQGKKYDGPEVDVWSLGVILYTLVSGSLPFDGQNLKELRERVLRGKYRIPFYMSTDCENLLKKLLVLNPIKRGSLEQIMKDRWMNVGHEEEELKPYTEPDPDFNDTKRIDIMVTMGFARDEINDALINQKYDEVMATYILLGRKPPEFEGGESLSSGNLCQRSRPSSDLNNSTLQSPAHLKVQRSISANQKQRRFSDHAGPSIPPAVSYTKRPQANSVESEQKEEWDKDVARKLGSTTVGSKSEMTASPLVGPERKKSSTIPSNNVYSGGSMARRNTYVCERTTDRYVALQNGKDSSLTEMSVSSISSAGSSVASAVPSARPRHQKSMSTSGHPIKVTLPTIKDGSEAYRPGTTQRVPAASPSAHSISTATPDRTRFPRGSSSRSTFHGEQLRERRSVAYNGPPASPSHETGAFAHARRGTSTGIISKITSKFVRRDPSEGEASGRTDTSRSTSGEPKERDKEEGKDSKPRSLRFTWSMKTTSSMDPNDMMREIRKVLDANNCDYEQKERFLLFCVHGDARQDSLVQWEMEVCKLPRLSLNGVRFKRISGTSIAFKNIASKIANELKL
quantity_measured: pIC50
// pIC50 is dimensionless: -log10 of concentration (M)

Find pIC50 for "CC(=O)N1CC[C@@H](Nc2cncc(C(=O)c3cn(C(C)C)c4ncnc(N)c34)n2)[C@H]1c1ccc(F)cc1" on Serine/threonine-protein kinase MARK1 (Homo sapiens) and write it down. 6.23

Numbers sourced from ChEMBL document CHEMBL1938337.
